Origin of values: patent US20050239656A1

Provide the reported Growth controlling degree (%) Rice of each item.
Test system: rice
Test: Test Example 2: soil surface treatment, upland pot test
Format: in vivo, Oryza sativa L.
Conditions: active ingredient 250 g/ha, observed 20th to 28th day
Answers are plain numbers, in %.

Entry CC(C)C(c1cnccc1C(F)(F)F)N(C)C(=O)C1CC1 (centres unmarked) — recorded Growth controlling degree (%) Rice = 100

Item: CC(C)C(c1cnccc1C(F)(F)F)N(C)C(=O)CCBr (centres unmarked) | Growth controlling degree (%) Rice: 70

Reported Growth controlling degree (%) Rice for CC(C)C(c1cnccc1C(F)(F)F)N(C)C(=O)CC(C)(C)C (centres unmarked) was 40

# Growth controlling degree (%) Rice (compound: CC(C)C(c1cnccc1C(F)(F)F)N(C)C(=O)Cc1ccc(Cl)cc1 (centres unmarked) ) is 0

Now for the compound whose Growth controlling degree (%) Rice we want.
Lab note: measured Growth controlling degree (%) Rice of CC(C)C(c1cnccc1C(F)(F)F)N(C)C(=O)Cc1ccccc1Cl (centres unmarked) was 10

----------
System: velvetleaf
Assay: Test Example 2: soil surface treatment, upland pot test
Type: in vivo, Abutilon theophrasti MEDIC.
Details: active ingredient 500 g/ha, observed 20th to 28th day
Parameter: Growth controlling degree (%) Velvetleaf

The recorded Growth controlling degree (%) Velvetleaf with velvetleaf for CC(C)C(c1cnccc1C(F)(F)F)N(C)C(=O)CC1CCCCC1 (centres unmarked) was 40%

Per the reported velvetleaf data, CC(C)C(c1cnccc1C(F)(F)F)N(C)C(=O)Cc1ccc(Br)c(F)c1 (racemic) has Growth controlling degree (%) Velvetleaf of 10%

Summary line: Cc1cccc(CC(=O)N(C)C(c2cnccc2C(F)(F)F)C(C)C)c1 (centres unmarked) , velvetleaf, reported Growth controlling degree (%) Velvetleaf = 70%

velvetleaf Growth controlling degree (%) Velvetleaf of CCN(C(=O)Cc1ccc(Cl)cc1)C(c1cnccc1C(F)(F)F)C(C)C (centres unmarked) is 10%

Lab entry: velvetleaf assay, molecule CC(C)C(Br)C(=O)N(C)C(c1cnccc1C(F)(F)F)C(C)C (centres unmarked) , Growth controlling degree (%) Velvetleaf = 50%

Please give Growth controlling degree (%) Velvetleaf, item by item, for the list that follows.
1. CC(C)C(=O)N(C)C(c1cnccc1C(F)(F)F)C(C)C (centres unmarked)
2. CCN(C(=O)Cc1ccc(F)cc1)C(c1cnccc1C(F)(F)F)C(C)C (centres unmarked)
3. COc1ccc(C=CC(=O)N(C)C(c2cnccc2C(F)(F)F)C(C)C)cc1 (centres unmarked)
4. CC(C)C(c1cnccc1C(F)(F)F)N(C)C(=O)C=Cc1ccc(Br)cc1 (centres unmarked)
5. CC(C)C(c1cnccc1C(F)(F)F)N(C)C(=O)Cc1cccc(F)c1F (centres unmarked)
6. CC(C)C(c1cnccc1C(F)(F)F)N(C)C(=O)Cc1ccc(OC(F)F)cc1 (racemic)
7. CC(C)C(c1cnccc1C(F)(F)F)N(C)S(=O)(=O)c1ccc(Cl)cc1 (racemic)

1: 70%; 2: 40%; 3: 50%; 4: 40%; 5: 80%; 6: 60%; 7: 70%

Go through the items and report each one's Growth controlling degree (%) Velvetleaf.
1. CC(C)C(c1cnccc1C(F)(F)F)N(C)C(=O)Cc1cccc(C(F)(F)F)c1 (centres unmarked)
2. CC(C)C(c1cnccc1C(F)(F)F)N(C)S(=O)(=O)C=Cc1ccccc1 (racemic)

1. 70%
2. 30%

----------
System: velvetleaf
Test: Test Example 1: foliage treatment, upland pot test
Type: in vivo, Abutilon theophrasti MEDIC.
Details: active ingredient 500 g/ha, observed 18th to 23rd day, 0 = non-treated, 100 = complete kill
Parameter: Growth controlling degree (%) Velvetleaf
One number for each entry, in %.

Please review the following examples before continuing.
Reported Growth controlling degree (%) Velvetleaf for CCC(=O)N(C)C(c1cnccc1C(F)(F)F)C(C)C (centres unmarked) [I-163] was 70

The measured Growth controlling degree (%) Velvetleaf associated with CC(C)C(c1cnccc1C(F)(F)F)N(C)C(=O)Cc1csc2ccccc12 (centres unmarked) [I-192] reads 70

Lab note: measured Growth controlling degree (%) Velvetleaf of CC(Oc1ccccc1)C(=O)N(C)C(c1cnccc1C(F)(F)F)C(C)C (centres unmarked) [I-119] was 10

Growth controlling degree (%) Velvetleaf measured on CCC(CC)C(c1cnccc1C(F)(F)F)N(C)C(=O)COc1ccccc1 (centres unmarked) [I-263] = 95

Field Growth controlling degree (%) Velvetleaf (entry CC(C)C(c1cnccc1C(F)(F)F)N(C)S(=O)(=O)c1ccccc1 (centres unmarked) [I-117] ) reads 80

The compound listed as C=CC(=O)N(C)C(c1cnccc1C(F)(F)F)C(C)C (centres unmarked) [I-190] has a reported Growth controlling degree (%) Velvetleaf of 60

For every listed record, write down its Growth controlling degree (%) Velvetleaf.
1. CC(C)C(c1cnccc1C(F)(F)F)N(C)C(=O)Cc1ccc(Cl)cc1Cl (centres unmarked) [I-14]
2. CC(C)C(c1cnccc1C(F)(F)F)N(C)C(=O)Cc1ccc(F)cc1 (centres unmarked) [I-21]
3. CC(C)C(c1cnccc1C(F)(F)F)N(C)C(=O)C(Br)C(C)(C)C (centres unmarked) [I-196]

1: 70; 2: 95; 3: 10

----------
Test system: corn
Assay: Test Example 2: soil surface treatment, upland pot test
Type: in vivo, Zea mays L.
Settings: active ingredient 500 g/ha, observed 20th to 28th day
For each record, check the reported Growth controlling degree (%) Corn: if it is below 30% write yes, else write no.

Hello, I'm reviewing records and need to know if Growth controlling degree (%) Corn of CC(C)C(c1cnccc1Cl)N(C)C(=O)Cc1c(F)cccc1F (stereo not shown) is below 30%. Could you check? yes

***
Report whether reported Growth controlling degree (%) Corn is lower than 30% (strictly) for CC(C)C(c1cnccc1C(F)(F)F)N(C)C(=O)Cc1ccccc1[N+](=O)[O-] (stereo not shown) no

Growth controlling degree (%) Corn under 30%? Item: CC(C)C(c1cnccc1C(F)(F)F)N(C)C(=O)CC1CCCC1 (stereo not shown) yes

Dear reviewer, please state whether CCN(C(=O)Cc1cccc(C(F)(F)F)c1F)C(c1cnccc1C(F)(F)F)C(C)C (stereo not shown) has Growth controlling degree (%) Corn strictly beneath 30%. yes

Hello, is Growth controlling degree (%) Corn of the following compound strictly smaller than 30%? CC(C)C(c1cnccc1C(F)(F)F)N(C)C(=O)CC1C=CCC1 (stereo not shown) yes

----------
Provide the recorded Growth controlling degree (%) Velvetleaf for the entries that follow.
Test system: velvetleaf
Assay: Test Example 1: foliage treatment, upland pot test
Format: in vivo, Abutilon theophrasti MEDIC.
Conditions: active ingredient 500 g/ha, observed 18th to 23rd day, 0 = non-treated, 100 = complete kill
Answers are plain numbers, in %.

Please review the entries below; each comes with its answer.
Record CC(C)C(c1cnccc1C(F)(F)F)N(C)C(=O)Cc1ccc(F)c(C(F)(F)F)c1 (centres unmarked) . Reported Growth controlling degree (%) Velvetleaf: 80

Measured Growth controlling degree (%) Velvetleaf, CCC(C)C(c1cnccc1C(F)(F)F)N(C)C(=O)Cc1ccccc1 (centres unmarked) : 90

CC(C)C(c1cnccc1C(F)(F)F)N(C)S(=O)(=O)c1ccc(F)cc1F (racemic) yielded Growth controlling degree (%) Velvetleaf of 60

Dear colleague, could you send me Growth controlling degree (%) Velvetleaf for each of the items below? Thanks.
1. CC(C)C(c1cnccc1C(F)(F)F)N(C)C(=O)Cc1ccc(Cl)c(Cl)c1 (centres unmarked)
2. CC(C)C(c1cnccc1C(F)(F)F)N(C)C(=O)Cc1ccc(C(F)(F)F)c(F)c1 (centres unmarked)

1. 90
2. 90
